- System: OVCAR-3 ovarian
- assay-explanation: NCI-60 one-dose screen, 48 h (100 = growth as untreated, 0 = no growth, -100 = all killed)
- test-conditions: 10 µM unless noted
About 83,000 compounds went through this panel and 20% of them were active in at least one assay; those are over-represented in the sample as a whole.
# label = class 1 if growth >= 50% else class 0

Quick check, growth >= 50%? "COC(=O)[C@]12CC[C@@H](C)[C@H](C)[C@@H]1C1=CC(=O)[C@@H]3[C@@]4(C)C[C@@H](OC(C)=O)[C@H](OC(C)=O)[C@@](C)(COC(C)=O)[C@@H]4C(=O)C[C@@]3(C)[C@]1(C)CC2"
class 0

# check: growth of "CC/C(=N/NC(N)=O)c1ccccc1" is greater than or equal to 50%
class 1

Please tell me: is the molecule CC1c2ccccc2N(S(=O)(=O)c2ccccc2)C1C (centres undefined) at or over 50% in terms of growth?
class 1

In plain terms: is recorded growth at least 50% for "O=C1CNCCN1" ?
class 1

Evaluate "COc1cc(-c2cc(-c3nc4cc(Cl)c(Cl)cc4[nH]3)[nH]n2)cc(OC)c1OC" : growth at minimum 50%?
class 1

Hi team, for "Cn1cc(-c2csc(-c3cn(CCCN4CCCCC4)c4ccccc34)n2)c2cccnc21" , is the recorded growth at or above 50%?
class 0

Could you verify whether the entry COc1ccc(C2C(C#N)=C(N)Oc3c2sc2c(F)cccc32)cc1 (centres undefined) shows growth of no less than 50%?
class 0

Determine whether this molecule has growth no lower than 50%: "C=CC(=O)N[C@H](Cc1ccc(-c2cc(Cl)cc(Cl)c2)cc1)[C@H](O)[C@@H](O)C(=O)O"
class 1

Check this molecule for growth at or above 50%: CC(=O)NC1=C(C#N)C(c2ccccc2Cl)c2c(ccc3ccccc23)O1 (centres undefined)
class 0
